target: rh beta tryptase (Homo sapiens, UniProt Q15661); assay: tryptase inhibition test (cleavage of N-p-tosyl-Gly-Pro-Lys-para-nitroaniline, p-nitroaniline measured at 405 nm); conditions: Tris HCl buffer pH 7.4 with calcium and heparin; substrate 0.6 mM; 5 min pre-incubation, 5 min incubation at 37° C.; enzyme activity 0.91 U/ml
Sequence (Q15661 31-275): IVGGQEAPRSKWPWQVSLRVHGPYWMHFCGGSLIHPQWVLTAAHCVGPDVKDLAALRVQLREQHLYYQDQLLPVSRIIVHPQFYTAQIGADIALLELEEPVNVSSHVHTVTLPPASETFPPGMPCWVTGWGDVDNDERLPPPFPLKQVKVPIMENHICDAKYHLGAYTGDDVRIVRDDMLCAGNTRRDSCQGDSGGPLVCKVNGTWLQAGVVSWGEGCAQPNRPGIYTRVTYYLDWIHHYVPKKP
Consider the following molecules; for each one, report its pIC50.
Reminder that pIC50 is minus the log10 of a molar concentration.

-- ask Please look up its pIC50: CCCn1c(CCc2ccc(C(=N)N)cc2)nc2cc(N(CCN(CC)CC)S(=O)(=O)c3ccccc3)ccc21
-- reply 6.53

-- ask What does the data say about its pIC50? Entry: Cn1c(CCc2ccc(C(=N)N)cc2)nc2cc(N(CCN3CCCCC3)S(=O)(=O)c3ccccc3)ccc21
-- reply 7.36

-- ask Entry Cn1c(CCc2ccc(C(=N)N)cc2)nc2cc(N(C3CCNCC3)S(=O)(=O)c3ccccc3)ccc21 has what pIC50?
-- reply 7.05

-- ask Given the entry Cn1c(CCc2ccc(C(=N)N)cc2)nc2cc(N(CC(=O)N3CCC(Cc4ccccc4)CC3)S(=O)(=O)c3ccc4ccccc4c3)ccc21 , report its measured pIC50.
-- reply 7.52

-- ask Reported pIC50 for CN1CCCN(C(=O)CN(c2ccc3c(c2)nc(CCc2ccc(C(=N)N)cc2)n3C)S(=O)(=O)c2ccccc2)CC1 : what is it?
-- reply 7.55

-- ask Please report the recorded pIC50 for CCN(CC)CCN(c1ccc2c(c1)nc(CCc1ccc(CN)cc1)n2C)S(=O)(=O)c1ccccc1 .
-- reply 7.00

-- ask Request the reported pIC50 associated with CCN(CC)CCN(c1ccc2c(c1)nc(CCc1ccc(C(=N)N)cc1)n2C)S(=O)(=O)c1ccc2ccccc2c1
-- reply 8.18

-- ask For the molecule CCOCCCn1c(CCc2ccc(C(=N)N)cc2)nc2cc(N(CCN(CC)CC)S(=O)(=O)c3ccccc3)ccc21 , what pIC50 is on record?
-- reply 6.88

-- ask Quick check: pIC50 of Cn1c(CCc2ccc(C(=N)N)cc2)nc2cc(N(CCN3CCOCC3)S(=O)(=O)c3ccc4ccccc4c3)ccc21 ?
-- reply 7.15

-- ask Please report the recorded pIC50 for CCN(CC)CCN(c1ccc2c(c1)nc(CCc1ccc(C(=N)N)cc1)n2C)S(=O)(=O)c1csc2ccccc12 .
-- reply 7.60

Measured values drawn from patent US6365584B1 for this set.
